Cited source: BigSolDB 2.1

conditions: in toluene, 298.15 K
Measure Name: solubility (mole fraction)
Please reply with the number alone, leaving off any unit.

The recorded solubility (mole fraction) for Nc1ccc([N+](=O)[O-])cc1[N+](=O)[O-] is 0.000917

====

details: in isopropanol, 293.15 K
Measure Name: solubility (mole fraction)
Please reply with the number alone, leaving off any unit.

The recorded solubility (mole fraction) for Nc1ccc([N+](=O)[O-])cc1[N+](=O)[O-] is 0.00177

====

settings: in n-butanol, 280.65 K
Measure Name: solubility (mole fraction)
Please reply with the number alone, leaving off any unit.

The recorded solubility (mole fraction) for Nc1ccc([N+](=O)[O-])cc1[N+](=O)[O-] is 0.00154
